Here, each record is paired with measured TGI data.
# Test system: HL-60(TB) leukemia
# test protocol: NCI tumour cell line growth inhibition, 48 h

The examples below pair each entry with its known result.
{"compound": "C=CCn1c(-c2cc(C(C)(C)C)c(O)c(C(C)(C)C)c2)cs/c1=N\\C(P(=O)(O)O)P(=O)(O)O", "TGI": "> 100 µM"}
{"compound": "CC1(CO)C(O)CCC2(C)C1CCC1CC3CC12CCC3(O)CO (stereo not drawn)", "TGI": "> 100 µM"}
{"compound": "O=C(Nc1ccc(OS(=O)(=O)c2ccc(F)cc2)cc1)C12CC3CC(CC(C3)C1)C2", "TGI": "> 100 µM"}
{"compound": "COC(=O)c1cc(-c2ccc3ccccc3c2)[nH]c(=O)c1C#N", "TGI": "38.7 µM"}
{"compound": "O/N=C1/CCC/C1=C\\c1ccccc1", "TGI": "> 100 µM"}
{"compound": "CCc1cccc(C(C)C)c1NC(=O)CC1Sc2ccccc2NC1=O (stereo not drawn)", "TGI": "50 µM"}
{"compound": "Cc1cc(N(CCC#N)S(=O)(=O)c2ccccc2)ccc1C=Nc1cccc(C(=O)O)c1", "TGI": "> 100 µM"}
{"compound": "Cc1ccc2nc(N)[nH]c(=O)c2c1Sc1ccncc1", "TGI": "> 100 µM"}

Q: Returns the measured TGI for the input compound. Input: "O=C(CCc1nc(=S)[nH][nH]1)Nc1cc(Cl)ccc1Cl"
Ans: > 100 µM

Q: Let us now turn to "CON(C)c1nc(N)c(C#N)c(C#N)c1C#N"
Ans: > 10 µM

Q: And C#CCN(N=O)C(=O)NC(CCCCNC(=O)OCc1ccccc1)C(=O)OCc1ccccc1 (stereo not drawn) ?
Ans: 37.6 µM

Q: Also CCC(=O)OC1CCn2c1nc1c2C(=O)C(C)=C(NC(C)=O)C1=O (stereo not drawn) ?
Ans: 3.89 µM

Q: Follow-up entry: "Oc1cc(O)c2c(c1)O[C@H](c1ccc(O)c(O)c1)[C@@H](O)C2"
Ans: > 100 µM
